# target: human REF mutant (Hu-REF) STING C-terminal binding domain protein (Homo sapiens, UniProt Q86WV6)
# Construct: made in house; host or cells: E. coli Rosetta 2 (DE3), co-expressed with BirA
# Sequence (Q86WV6 with tags, fused parts or gaps, change not shown): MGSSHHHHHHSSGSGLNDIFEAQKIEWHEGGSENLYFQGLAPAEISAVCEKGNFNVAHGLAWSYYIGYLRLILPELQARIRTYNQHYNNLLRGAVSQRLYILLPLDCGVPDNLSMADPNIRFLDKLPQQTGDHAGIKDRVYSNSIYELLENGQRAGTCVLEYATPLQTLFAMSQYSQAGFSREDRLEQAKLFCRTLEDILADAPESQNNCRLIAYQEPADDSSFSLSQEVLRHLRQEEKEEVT
# procedure-text: Thermal shift assay with recombinant STING C-terminal binding domain protein (Hu-REF)
# conditions: test compound 0.5 mM; Tm minus Tm of well without compound
assay-metric: ΔTm (° C.) Hu-REF (°C)

- compound: "O=c1c2ncn([C@@H]3O[C@@H]4COP(=O)(S)O[C@H]5[C@@H](F)[C@H](n6cc7c8c(ncnc86)SCCC7)O[C@@H]5COP(=O)(S)O[C@@H]3[C@@H]4O)c2ncn1CCO (single isomer, unassigned) [Compound 48b]"
  units: "°C"
  assay-result: 7.3
- compound: "O=c1c2ncn([C@@H]3O[C@@H]4COP(=O)(S)O[C@H]5[C@@H](F)[C@H](n6cc7c8c(ncnc86)NCCC7)O[C@@H]5COP(=O)(S)O[C@@H]3[C@@H]4F)c2ncn1CCO (single isomer, unassigned) [Compound 44b]"
  units: "°C"
  assay-result: 6.2
- compound: "O=c1c2ncn([C@@H]3O[C@@H]4COP(=O)(S)O[C@H]5[C@@H](O)[C@H](n6cc7c8c(ncnc86)NCCC7)O[C@@H]5COP(=O)(S)O[C@@H]3[C@@H]4O)c2ncn1CCO (single isomer, unassigned)"
  units: "°C"
  assay-result: 3.4
- compound: "O=c1c2ncn([C@@H]3O[C@@H]4COP(=O)(O)O[C@H]5[C@@H](F)[C@H](n6cc7c8c(ncnc86)NCCC7)O[C@@H]5COP(=O)(S)O[C@@H]3[C@@H]4O)c2ncn1CCO (single isomer, unassigned) [Compound 52b]"
  units: "°C"
  assay-result: 4.4
- compound: "O=c1c2ncn([C@@H]3O[C@@H]4COP(=O)(S)O[C@H]5[C@@H](F)[C@H](n6cc7c8c(ncnc86)NCCC7)O[C@@H]5COP(=O)(S)O[C@@H]3[C@@H]4O)c2ncn1CCO (single isomer, unassigned) [Compound 34b]"
  units: "°C"
  assay-result: 6.5

----------
Listed below: ΔTm (° C.) Hu-AQ values for each entry.
# target: human AQ mutant (Hu-AQ) STING C-terminal binding domain protein (Homo sapiens, UniProt Q86WV6, G230A/H232R/R293Q)
# Construct: made in house; host or cells: E. coli Rosetta 2 (DE3), co-expressed with BirA
# Sequence (Q86WV6 with tags, fused parts or gaps G230A/H232R/R293Q): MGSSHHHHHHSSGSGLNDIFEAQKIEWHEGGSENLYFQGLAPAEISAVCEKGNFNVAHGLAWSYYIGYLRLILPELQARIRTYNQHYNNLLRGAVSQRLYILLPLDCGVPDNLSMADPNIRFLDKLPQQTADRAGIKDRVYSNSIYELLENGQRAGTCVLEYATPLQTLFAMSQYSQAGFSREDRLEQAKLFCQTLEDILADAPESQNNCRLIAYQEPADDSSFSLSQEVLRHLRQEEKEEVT
# procedure-text: Thermal shift assay with recombinant STING C-terminal binding domain protein (Hu-AQ)
# conditions: test compound 0.5 mM; Tm minus Tm of well without compound

- compound: "O=c1c2ncn([C@@H]3O[C@@H]4COP(=O)(S)O[C@H]5[C@@H](O)[C@H](n6cc7c8c(ncnc86)NCCC7)O[C@@H]5COP(=O)(S)O[C@@H]3[C@@H]4O)c2ncn1CCO (single isomer, unassigned)"
  ΔTm (° C.) Hu-AQ, °C: 11.3
- compound: "O=c1c2ncn([C@@H]3O[C@@H]4COP(=O)(S)O[C@H]5[C@@H](F)[C@H](n6cc7c8c(ncnc86)SCCC7)O[C@@H]5COP(=O)(S)O[C@@H]3[C@@H]4O)c2ncn1CCO (single isomer, unassigned) [Compound 48b]"
  ΔTm (° C.) Hu-AQ, °C: 17.8
- compound: "O=c1c2ncn([C@@H]3O[C@@H]4COP(=O)(S)O[C@H]5[C@@H](F)[C@H](n6cc7c8c(ncnc86)NCCC7)O[C@@H]5COP(=O)(S)O[C@@H]3[C@@H]4F)c2ncn1CCO (single isomer, unassigned) [Compound 44b]"
  ΔTm (° C.) Hu-AQ, °C: 14.3
- compound: "O=c1c2ncn([C@@H]3O[C@@H]4COP(=O)(O)O[C@H]5[C@@H](F)[C@H](n6cc7c8c(ncnc86)NCCC7)O[C@@H]5COP(=O)(S)O[C@@H]3[C@@H]4O)c2ncn1CCO (single isomer, unassigned) [Compound 52b]"
  ΔTm (° C.) Hu-AQ, °C: 10.8
- compound: "O=c1c2ncn([C@@H]3O[C@@H]4COP(=O)(S)O[C@H]5[C@@H](F)[C@H](n6cc7c8c(ncnc86)NCCC7)O[C@@H]5COP(=O)(S)O[C@@H]3[C@@H]4O)c2ncn1CCO (single isomer, unassigned) [Compound 34b]"
  ΔTm (° C.) Hu-AQ, °C: 14.0

----------
# target: mouse wild type (Ms-WT) STING C-terminal binding domain protein (Mus musculus)
# Construct: made in house; host or cells: E. coli Rosetta 2 (DE3), co-expressed with BirA
# Sequence (Q3TBT3 with tags, fused parts or gaps): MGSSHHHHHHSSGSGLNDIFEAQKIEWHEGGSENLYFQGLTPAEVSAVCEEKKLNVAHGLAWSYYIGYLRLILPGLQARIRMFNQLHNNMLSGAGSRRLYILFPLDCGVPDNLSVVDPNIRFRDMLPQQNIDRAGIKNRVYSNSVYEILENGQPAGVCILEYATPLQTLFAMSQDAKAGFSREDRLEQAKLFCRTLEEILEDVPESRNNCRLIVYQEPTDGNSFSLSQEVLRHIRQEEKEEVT
# procedure-text: Thermal shift assay with recombinant STING C-terminal binding domain protein (Ms-WT)
# conditions: test compound 0.5 mM; Tm minus Tm of well without compound

- compound: "O=c1c2ncn([C@@H]3O[C@@H]4COP(=O)(S)O[C@H]5[C@@H](O)[C@H](n6cc7c8c(ncnc86)NCCC7)O[C@@H]5COP(=O)(S)O[C@@H]3[C@@H]4O)c2ncn1CCO (single isomer, unassigned)"
  ΔTm (° C.) Ms-WT: "12.9 °C"
- compound: "O=c1c2ncn([C@@H]3O[C@@H]4COP(=O)(S)O[C@H]5[C@@H](F)[C@H](n6cc7c8c(ncnc86)NCCC7)O[C@@H]5COP(=O)(S)O[C@@H]3[C@@H]4O)c2ncn1CCO (single isomer, unassigned) [Compound 34b]"
  ΔTm (° C.) Ms-WT: "16.7 °C"
- compound: "O=c1c2ncn([C@@H]3O[C@@H]4COP(=O)(O)O[C@H]5[C@@H](F)[C@H](n6cc7c8c(ncnc86)NCCC7)O[C@@H]5COP(=O)(S)O[C@@H]3[C@@H]4O)c2ncn1CCO (single isomer, unassigned) [Compound 52b]"
  ΔTm (° C.) Ms-WT: "12.3 °C"
- compound: "O=c1c2ncn([C@@H]3O[C@@H]4COP(=O)(S)O[C@H]5[C@@H](F)[C@H](n6cc7c8c(ncnc86)SCCC7)O[C@@H]5COP(=O)(S)O[C@@H]3[C@@H]4O)c2ncn1CCO (single isomer, unassigned) [Compound 48b]"
  ΔTm (° C.) Ms-WT: "15.8 °C"
- compound: "O=c1c2ncn([C@@H]3O[C@@H]4COP(=O)(S)O[C@H]5[C@@H](F)[C@H](n6cc7c8c(ncnc86)NCCC7)O[C@@H]5COP(=O)(S)O[C@@H]3[C@@H]4F)c2ncn1CCO (single isomer, unassigned) [Compound 44b]"
  ΔTm (° C.) Ms-WT: "17.0 °C"

----------
# target: human wild-type (Hu-WT) STING C-terminal binding domain protein (Homo sapiens, UniProt Q86WV6, H232R)
# Construct: made in house; host or cells: E. coli Rosetta 2 (DE3), co-expressed with BirA
# Sequence (Q86WV6 with tags, fused parts or gaps H232R): as the sequence (Q86WV6 with tags, fused parts or gaps G230A/H232R/R293Q) above, with A131G, Q194R counted along it
# procedure-text: Thermal shift assay with recombinant STING C-terminal binding domain protein (Hu-WT)
# conditions: test compound 0.5 mM; Tm minus Tm of well without compound
assay-metric: ΔTm (° C.) Hu-WT (°C)

- compound: "O=c1c2ncn([C@@H]3O[C@@H]4COP(=O)(S)O[C@H]5[C@@H](F)[C@H](n6cc7c8c(ncnc86)SCCC7)O[C@@H]5COP(=O)(S)O[C@@H]3[C@@H]4O)c2ncn1CCO (single isomer, unassigned) [Compound 48b]"
  assay-metric: "ΔTm (° C.) Hu-WT"
  assay-result: 14.0
- compound: "O=c1c2ncn([C@@H]3O[C@@H]4COP(=O)(S)O[C@H]5[C@@H](F)[C@H](n6cc7c8c(ncnc86)NCCC7)O[C@@H]5COP(=O)(S)O[C@@H]3[C@@H]4O)c2ncn1CCO (single isomer, unassigned) [Compound 34b]"
  assay-metric: "ΔTm (° C.) Hu-WT"
  assay-result: 12.0
- compound: "O=c1c2ncn([C@@H]3O[C@@H]4COP(=O)(S)O[C@H]5[C@@H](F)[C@H](n6cc7c8c(ncnc86)NCCC7)O[C@@H]5COP(=O)(S)O[C@@H]3[C@@H]4F)c2ncn1CCO (single isomer, unassigned) [Compound 44b]"
  assay-metric: "ΔTm (° C.) Hu-WT"
  assay-result: 11.4
- compound: "O=c1c2ncn([C@@H]3O[C@@H]4COP(=O)(O)O[C@H]5[C@@H](F)[C@H](n6cc7c8c(ncnc86)NCCC7)O[C@@H]5COP(=O)(S)O[C@@H]3[C@@H]4O)c2ncn1CCO (single isomer, unassigned) [Compound 52b]"
  assay-metric: "ΔTm (° C.) Hu-WT"
  assay-result: 9.2
- compound: "O=c1c2ncn([C@@H]3O[C@@H]4COP(=O)(S)O[C@H]5[C@@H](O)[C@H](n6cc7c8c(ncnc86)NCCC7)O[C@@H]5COP(=O)(S)O[C@@H]3[C@@H]4O)c2ncn1CCO (single isomer, unassigned)"
  assay-metric: "ΔTm (° C.) Hu-WT"
  assay-result: 8.4
